Below, each of the sequences is paired with its reported thermal stability score value.
Test system: HeLa Kyoto;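 also: synchronized HeLa Kyoto cells, proteins quantified by TMT10plex mass spectrometry, three biological replicates, mitosis taken 0.5 h after nocodazole release, G1/S directly after double thymidine block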
Experiment: thermal stability score vs G1/S (z-score of summed log2 fold changes over temperatures); higher = more thermally stable than in G1/S
Settings: cell cycle stage: early G1 (4.5 h after nocodazole release)

{"columns": ["ENTRY_SEQUENCE", "SYSTEM_NAME", "thermal stability score"],
 "data": [
  ["MESALPAAGFLYWVGAGTVAYLALRISYSLFTALRVWGVGNEAGVGPGLGEWAVVTGSTDGIGKSYAEELAKHGMKVVLISRSKDKLDQVSSEIKEKFKVETRTIAVDFASEDIYDKIKTGLAGLEIGILVNNVGMSYEYPEYFLDVPDLDNVIKKMININILSVCKMTQLVLPGMVERSKGAILNISSGSGMLPVPLLTIYSATKTFVDFFSQCLHEEYRSKGVFVQSVLPYFVATKLAKIRKPTLDKPSPETFVKSAIKTVGLQSRTNGYLIHALMGSIISNLPSWIYLKIVMNMNKSTRAHYLKKTKKN [HSD17B12]", "HeLa Kyoto", -1.05],
  ["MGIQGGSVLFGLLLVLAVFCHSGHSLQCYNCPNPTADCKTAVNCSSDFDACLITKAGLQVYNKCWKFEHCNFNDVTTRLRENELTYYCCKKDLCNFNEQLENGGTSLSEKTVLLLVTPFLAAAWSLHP [CD59]", "HeLa Kyoto", -2.05]
]}
